tested_on: human LPA1 (Homo sapiens, UniProt Q92633)
Construct: expressed in transfected cells; host or cells: Chinese hamster ovary (CHO) cells
Sequence (Q92633 whole entry): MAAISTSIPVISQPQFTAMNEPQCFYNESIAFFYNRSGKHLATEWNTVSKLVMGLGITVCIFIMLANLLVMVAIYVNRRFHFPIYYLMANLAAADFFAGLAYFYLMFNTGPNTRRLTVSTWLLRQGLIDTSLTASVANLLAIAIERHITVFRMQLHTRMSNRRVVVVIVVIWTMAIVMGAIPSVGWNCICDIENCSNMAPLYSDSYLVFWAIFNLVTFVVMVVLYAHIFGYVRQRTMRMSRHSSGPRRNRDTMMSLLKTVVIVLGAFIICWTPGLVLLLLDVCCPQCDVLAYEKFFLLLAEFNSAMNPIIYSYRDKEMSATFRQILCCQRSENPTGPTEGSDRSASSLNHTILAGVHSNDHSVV
test_protocol: LPA1 functional antagonist assay (calcium flux)
Assay type: cell-based
assay_setup: CHO cells overexpressing human LPA1; calcium flux induced by 10 nM LPA; read-out: hLPA1 IC50
measurement_type: IC50 (µM)
One number for each entry, in µM.

// known answers, use as guide
substance_smiles: CCCCOC(=O)Nc1c(-c2ccc(O[C@H]3CCC[C@H](C(=O)O)C3)c(C)n2)nnn1C
unit_of_measure: µM
IC50: 0.021
--
substance_smiles: Cc1nc(-c2nnn(C)c2CNC(=O)NCCC(C)C)ccc1O[C@H]1CCC[C@H](C(=O)O)C1
unit_of_measure: µM
IC50: 0.101

Ask | Would you mind telling me what IC50 value was observed for `Cc1ccc(OC(=O)NCc2c(-c3ccc(O[C@H]4CCC[C@H](C(=O)O)C4)c(C)n3)nnn2C)cc1` ?
Reply | 0.148

---

tested_on: human LPA1 (Homo sapiens)
Construct: expressed in transfected cells; host or cells: Chinese hamster ovary (CHO) cells
test_protocol: LPA1 functional antagonist assay (calcium flux)
Type: cell-based
assay_setup: human LPA1 functional antagonist assay; read-out: hLPA1 IC50
measurement_type: pIC50
Give bare numbers, as −log10 of the molar value.

compound: CCC[C@H](C)OC(=O)NCc1c(-c2ccc(O[C@H]3CCC[C@H](C(=O)O)C3)c(C)n2)nnn1C
tested_on: human LPA1 (Homo sapiens)
endpoint_result: 7.47
//
compound: CC[C@H](C)OC(=O)NCc1c(-c2ccc(O[C@H]3CCC[C@H](C(=O)O)C3)c(C)n2)nnn1C
tested_on: human LPA1 (Homo sapiens)
endpoint_result: 7.02
//
compound: Cc1nc(-c2nnn(C)c2CNC(=O)O[C@@H](C)C(C)C)ccc1O[C@H]1CCC[C@H](C(=O)O)C1
tested_on: human LPA1 (Homo sapiens)
endpoint_result: 6.78
//
compound: Cc1nc(-c2nnn(C)c2CNC(=O)OCC(C)CC(F)(F)F)cnc1O[C@H]1CCC[C@H](C(=O)O)C1 (stereo partly shown)
tested_on: human LPA1 (Homo sapiens)
endpoint_result: 7.07
//
compound: Cc1nc(-c2nnn(C)c2CNC(=O)OCCC2CC2)cnc1O[C@H]1CCC[C@H](C(=O)O)C1
tested_on: human LPA1 (Homo sapiens)
endpoint_result: 7.18

# map each compound to its pIC50
1. Cc1nc(-c2nnn(C)c2CNC(=O)OC2CC3(CC3)C2)ccc1O[C@H]1CCC[C@H](C(=O)O)C1
2. CC[C@@H](C)OC(=O)NCc1c(-c2ccc(O[C@H]3CCC[C@H](C(=O)O)C3)c(C)n2)nnn1C

Reply |
7.38
6.82
